# TESTED_SYSTEM: hATP6V1B2 (Homo sapiens, UniProt P21281)
# Sequence (P21281 whole entry): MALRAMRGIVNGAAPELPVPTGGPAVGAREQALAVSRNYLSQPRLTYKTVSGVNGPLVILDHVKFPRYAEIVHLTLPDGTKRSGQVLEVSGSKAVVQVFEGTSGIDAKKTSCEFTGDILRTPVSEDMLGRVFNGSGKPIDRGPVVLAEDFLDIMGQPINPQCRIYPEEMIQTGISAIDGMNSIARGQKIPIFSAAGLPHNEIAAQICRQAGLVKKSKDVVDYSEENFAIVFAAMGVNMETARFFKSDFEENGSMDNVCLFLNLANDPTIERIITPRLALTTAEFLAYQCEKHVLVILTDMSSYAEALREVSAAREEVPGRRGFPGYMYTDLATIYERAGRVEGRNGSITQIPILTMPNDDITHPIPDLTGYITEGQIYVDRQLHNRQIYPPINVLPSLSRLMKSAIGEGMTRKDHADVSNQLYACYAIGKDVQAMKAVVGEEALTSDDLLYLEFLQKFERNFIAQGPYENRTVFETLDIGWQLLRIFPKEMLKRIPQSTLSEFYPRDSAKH
# PROCEDURE_TEXT: Co-immunoprecipitation of Myc-tagged hATP6V1B2 with GFP-tagged QD202 and site mutants (HEK 293 lysates, western blot)
# Assay type: binding
# SETTINGS: expressed from pEGFP-N3 plasmids in HEK 293, anti-GFP IP, FIG. 7A, 7B
Ends that are not written are not given here.
OBSERVED_PROPERTY: binding to Myc-tagged hATP6V1B2 (co-immunoprecipitation)

SUBSTANCE	TESTED_SYSTEM	EXPERIMENTAL_RESULT
QD202(P13A): QD202 in which proline at position 13 was substituted with alanine; expressed from pEGFP-N3 plasmid (YGRKKRRQRRRSAVDVVCS; not fully specified)	hATP6V1B2 (Homo sapiens, UniProt P21281)	also bind to
QD202(V14A): QD202 in which valine at position 14 was substituted with alanine; expressed from pEGFP-N3 plasmid (YGRKKRRQRRRSPADVVCS; not fully specified)	hATP6V1B2 (Homo sapiens, UniProt P21281)	also bind to

// provenance: patent EP4755393A1
